- Species: Homo sapiens
- Assay Method Text: Selectivity ratio, Ki for human adrenergic alpha-1b receptor to Ki for human adrenergic alpha-1d receptor
Outcome Measure: Ratio Ki
The answer should be written as a number, with no unit following it.

CC(C)Oc1ccccc1N1CCN(C2CCC(N3C(=O)c4ccc5ccccc5c4C3=O)CC2)CC1 (centres undefined): 75
CC(C)Oc1ccccc1N1CCN(C2CCC(N3C(=O)c4cc(Cl)c(Cl)cc4C3=O)CC2)CC1 (centres undefined): 3610
CC(C)Oc1ccccc1N1CCN(C2CCC(N3C(=O)c4c(F)c(F)c(F)c(F)c4C3=O)CC2)CC1 (centres undefined): 136

IN: Read the entry CC(C)Oc1ccccc1N1CCN(C2CCC(N3C(=O)c4ccc5ccc(F)cc5c4C3=O)CC2)CC1 (stereo in doubt; 6f) and write its reported Ratio Ki.
OUT: 16

IN: Read the entry CC(C)Oc1ccccc1N1CCN(C2CCC(N3C(=O)c4ccc5ccc(F)cc5c4C3=O)CC2)CC1 (stereo in doubt; 6g) and write its reported Ratio Ki.
OUT: 93

IN: Read the entry CC(C)Oc1ccccc1N1CCN(C2CCC(N3C(=O)c4cccnc4C3=O)CC2)CC1 (centres undefined) and write its reported Ratio Ki.
OUT: 30

IN: Read the entry CC(C)Oc1ccccc1N1CCN(C2CCC(N3C(=O)c4cccc(F)c4C3=O)CC2)CC1 (stereo in doubt; 6d) and write its reported Ratio Ki.
OUT: 9

IN: Read the entry CC(C)Oc1ccccc1N1CCN(C2CCC(N3C(=O)c4ccncc4C3=O)CC2)CC1 (centres undefined) and write its reported Ratio Ki.
OUT: 28

IN: Read the entry CC(C)Oc1ccccc1N1CCN(C2CCC(N3C(=O)c4cccc(F)c4C3=O)CC2)CC1 (stereo in doubt; 6c) and write its reported Ratio Ki.
OUT: 200

====

- Test Target: Adrenergic receptors; alpha-1 A & B (Homo sapiens) (UniProt P35348+P35368)
- Sequence (P35368 whole entry, looked up, one chain of several): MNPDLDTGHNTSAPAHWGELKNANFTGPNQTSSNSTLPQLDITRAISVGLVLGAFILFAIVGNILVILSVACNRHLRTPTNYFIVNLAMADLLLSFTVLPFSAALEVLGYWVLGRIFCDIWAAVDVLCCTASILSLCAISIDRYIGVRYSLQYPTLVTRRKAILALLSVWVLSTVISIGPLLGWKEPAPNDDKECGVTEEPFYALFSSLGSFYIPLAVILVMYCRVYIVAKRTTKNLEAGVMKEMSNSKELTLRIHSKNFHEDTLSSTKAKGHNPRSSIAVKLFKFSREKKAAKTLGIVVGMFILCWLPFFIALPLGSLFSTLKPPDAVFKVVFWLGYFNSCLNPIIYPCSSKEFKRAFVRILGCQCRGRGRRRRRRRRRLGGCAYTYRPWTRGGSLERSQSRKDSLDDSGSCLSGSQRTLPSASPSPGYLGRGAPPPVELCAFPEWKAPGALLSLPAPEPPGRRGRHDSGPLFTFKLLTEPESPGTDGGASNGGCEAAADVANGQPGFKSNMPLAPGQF
- Assay Method Text: Selectivity ratio, Ki for human adrenergic alpha-1b receptor to Ki for human adrenergic alpha-1a receptor
- Format: protein assay
// NB: equality with 100 counts as false (0); only Ratio Ki strictly below is true (1)

Below, 4 compounds whose answers are already recorded.
CC(C)Oc1ccccc1N1CCN(C2CCC(N3C(=O)c4ccc5ccc(F)cc5c4C3=O)CC2)CC1 (stereo in doubt; 6f): true (1)
CC(C)Oc1ccccc1N1CCN(C2CCC(N3C(=O)c4cc(Cl)c(Cl)cc4C3=O)CC2)CC1 (stereo not given): false (0)
CC(C)Oc1ccccc1N1CCN(C2CCC(N3C(=O)c4ccncc4C3=O)CC2)CC1 (stereo not given): true (1)
CC(C)Oc1ccccc1N1CCN(C2CCC(N3C(=O)c4c(F)c(F)c(F)c(F)c4C3=O)CC2)CC1 (stereo not given): false (0)

IN: is_below(Ratio Ki, 100) for CC(C)Oc1ccccc1N1CCN(C2CCC(N3C(=O)c4cccc(F)c4C3=O)CC2)CC1 (stereo in doubt; 6d) ?
OUT: false (0)

====

- Test Target: Alpha-1D adrenergic receptor (Homo sapiens, UniProt P25100)
- Sequence (P25100 whole entry): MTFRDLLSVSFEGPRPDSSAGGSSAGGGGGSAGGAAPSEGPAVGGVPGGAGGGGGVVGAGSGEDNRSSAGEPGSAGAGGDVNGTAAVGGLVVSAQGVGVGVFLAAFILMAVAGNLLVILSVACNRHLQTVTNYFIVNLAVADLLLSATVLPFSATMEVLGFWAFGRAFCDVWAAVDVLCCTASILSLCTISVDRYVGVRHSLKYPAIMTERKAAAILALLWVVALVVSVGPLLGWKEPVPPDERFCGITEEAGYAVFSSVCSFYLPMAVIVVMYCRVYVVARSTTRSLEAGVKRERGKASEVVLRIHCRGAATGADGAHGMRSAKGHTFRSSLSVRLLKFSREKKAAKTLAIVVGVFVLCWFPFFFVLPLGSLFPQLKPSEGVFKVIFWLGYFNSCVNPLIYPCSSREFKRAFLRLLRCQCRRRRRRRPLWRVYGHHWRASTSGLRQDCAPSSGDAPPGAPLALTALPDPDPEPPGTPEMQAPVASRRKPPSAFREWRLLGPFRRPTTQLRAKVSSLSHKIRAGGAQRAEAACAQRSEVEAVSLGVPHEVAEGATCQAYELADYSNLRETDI
Outcome Measure: pKi
By convention, pKi is the negative base-10 log of a molar concentration.

IN: Read the entry CC(C)Oc1ccccc1N1CCN(C2CCC(N3C(=O)c4cccc(F)c4C3=O)CC2)CC1 (stereo in doubt; 6d) and write its reported pKi.
OUT: 7.83

IN: Read the entry CC(C)Oc1ccccc1N1CCN(C2CCC(N3C(=O)c4cccc(F)c4C3=O)CC2)CC1 (stereo in doubt; 6c) and write its reported pKi.
OUT: 10.05

IN: Read the entry CC(C)Oc1ccccc1N1CCN(C2CCC(N3C(=O)c4cccnc4C3=O)CC2)CC1 (stereo unspecified) and write its reported pKi.
OUT: 8.82

IN: Read the entry CC(C)Oc1ccccc1N1CCN(C2CCC(N3C(=O)c4ccncc4C3=O)CC2)CC1 (stereo unspecified) and write its reported pKi.
OUT: 9.10

IN: Read the entry CC(C)Oc1ccccc1N1CCN(C2CCC(N3C(=O)c4ccc5ccccc5c4C3=O)CC2)CC1 (stereo unspecified) and write its reported pKi.
OUT: 9.70

IN: Read the entry CC(C)Oc1ccccc1N1CCN(C2CCC(N3C(=O)c4ccc5ccc(F)cc5c4C3=O)CC2)CC1 (stereo in doubt; 6g) and write its reported pKi.
OUT: 9.30

====

Each entry below carries its recorded Ki.
Target protein (sequence): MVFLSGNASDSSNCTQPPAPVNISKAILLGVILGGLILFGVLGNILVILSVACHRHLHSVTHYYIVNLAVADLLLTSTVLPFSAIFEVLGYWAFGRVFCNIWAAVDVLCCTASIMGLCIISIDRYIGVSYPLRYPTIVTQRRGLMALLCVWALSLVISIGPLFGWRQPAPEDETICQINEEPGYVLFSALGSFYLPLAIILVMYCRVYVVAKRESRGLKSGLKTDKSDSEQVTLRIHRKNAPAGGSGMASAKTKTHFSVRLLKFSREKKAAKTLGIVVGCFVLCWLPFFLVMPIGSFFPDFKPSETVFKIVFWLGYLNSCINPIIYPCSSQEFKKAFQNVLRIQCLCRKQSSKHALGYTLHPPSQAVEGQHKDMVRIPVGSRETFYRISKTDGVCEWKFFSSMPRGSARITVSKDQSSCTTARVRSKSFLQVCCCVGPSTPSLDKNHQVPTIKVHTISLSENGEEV
Give the value in nM but do not write nM after it.

Worked cases, answers included:
CC(C)Oc1ccccc1N1CCN(C2CCC(N3C(=O)c4ccc5ccc(F)cc5c4C3=O)CC2)CC1 (stereo in doubt; 6f): 15
CC(C)Oc1ccccc1N1CCN(C2CCC(N3C(=O)c4cccnc4C3=O)CC2)CC1 (centres undefined): 0.8
CC(C)Oc1ccccc1N1CCN(C2CCC(N3C(=O)c4cccc(F)c4C3=O)CC2)CC1 (stereo in doubt; 6c): 0.2

Continue with the next molecule.
IN: Read the entry CC(C)Oc1ccccc1N1CCN(C2CCC(N3C(=O)c4ccc5ccccc5c4C3=O)CC2)CC1 (centres undefined) and write its reported Ki.
OUT: 1.8

====

- Test Target: Adrenergic receptors; alpha-1 A & B (Homo sapiens) (UniProt P35348+P35368)
- Assay Method Text: Selectivity ratio, Ki for human adrenergic alpha-1b receptor to Ki for human adrenergic alpha-1a receptor
- Format: protein assay
Each entry below carries its recorded Ratio Ki.
The answer should be written as a number, with no unit following it.

CC(C)Oc1ccccc1N1CCN(C2CCC(N3C(=O)c4cccnc4C3=O)CC2)CC1 (centres undefined): 56
CC(C)Oc1ccccc1N1CCN(C2CCC(N3C(=O)c4cccc(F)c4C3=O)CC2)CC1 (stereo in doubt; 6c): 90
CC(C)Oc1ccccc1N1CCN(C2CCC(N3C(=O)c4ccc5ccc(F)cc5c4C3=O)CC2)CC1 (stereo in doubt; 6g): 12

Continue with the next compound.
IN: Write down measured Ratio Ki (Adrenergic receptors; alpha-1 A & B (Homo sapiens) (UniProt P35348+P35368)) for this compound. CC(C)Oc1ccccc1N1CCN(C2CCC(N3C(=O)c4ccc5ccccc5c4C3=O)CC2)CC1 (centres undefined)
OUT: 8
